# target-or-system: Chromo domain-containing protein 1 (Saccharomyces cerevisiae (strain ATCC 204508 / S288c) (Baker's yeast))
# measurement-protocol: ScCHD-1 Enzyme Inhibition Assay
# Format: functional
# Set-up: scale not given: in the data most compounds retested in dose-response had high values
# condition-parameters: 30 µM
Items are presented alongside their recorded Percent Effect.
attribute-measured: Percent Effect (%)

[[record]]
molecule = "Cc1cccc(-c2ccc(C(=O)NCCN(C)C3CC3)c(=O)[nH]2)c1"
attribute_measured = "Percent Effect"
observed_measurement = -1.94

[[record]]
molecule = "CCCC(C)C(=O)NCc1cn2cc(Br)ccc2n1 (configuration not stated)"
attribute_measured = "Percent Effect"
observed_measurement = -2.1

[[record]]
molecule = "Cc1cc(C(N)=O)ccc1NC(=O)c1nc(N2CCCC2)ncc1Cl"
attribute_measured = "Percent Effect"
observed_measurement = 2.96

[[record]]
molecule = "c1ccc(-c2nc(CN3CCOC(Cn4cccn4)C3)no2)cc1 (configuration not stated)"
attribute_measured = "Percent Effect"
observed_measurement = -6.08

[[record]]
molecule = "O=C([C@H]1C[C@H]2OCC[C@H]2N(CCc2ccccc2)C1)N1CCCCO1"
attribute_measured = "Percent Effect"
observed_measurement = 6.02

[[record]]
molecule = "CC(=O)N1CCC2(CC1)COCCN2CCN(C)C"
attribute_measured = "Percent Effect"
observed_measurement = -5.07

[[record]]
molecule = "O=C(Cc1ccccc1Cl)N1CCCC(n2cncn2)C1 (configuration not stated)"
attribute_measured = "Percent Effect"
observed_measurement = 1.66

[[record]]
molecule = "Cc1nn(C)c(C)c1C1CCCN1C(=O)c1ccc(Cl)o1 (configuration not stated)"
attribute_measured = "Percent Effect"
observed_measurement = 1.72

[[record]]
molecule = "NC(=O)N1CCC2(CC1)CN(c1ccsc1)C(=O)CO2"
attribute_measured = "Percent Effect"
observed_measurement = -2.23

[[record]]
molecule = "CC(C)n1ccnc1C1CCN(C(=O)c2cc[nH]n2)CC1"
attribute_measured = "Percent Effect"
observed_measurement = -4.41

[[record]]
molecule = "CCCOc1cc(C)ccc1NC(=O)NCCC(=O)N(C)C"
attribute_measured = "Percent Effect"
observed_measurement = -2.56

[[record]]
molecule = "Cn1cc(C2CCCN2Cc2csc(-c3ccsc3)n2)cn1 (configuration not stated)"
attribute_measured = "Percent Effect"
observed_measurement = -2

